Where do the numbers come from? From patent EP2170885B1.

Target: MMP13 (Homo sapiens)
Construct: in the form of the catalytic domains alone for the other MMPs
Experiment: Fluorimetric enzymatic test, MMP13
Format: biochemical
Conditions: catalytic domain
Measured IC50 by item
property: IC50 (nM)

{"compound": "CCCCOc1ccc(S(=O)(=O)N2CCc3c([nH]c4ccccc34)C2C(=O)NO)cc1 (racemic)", "property": "IC50", "censoring.qualifier": "=", "measurement": 2000}
{"compound": "COc1ccc(Oc2ccc(S(=O)(=O)N3CCc4c([nH]c5ccccc45)C3C(=O)O)cc2)cc1 (racemic)", "property": "IC50", "censoring.qualifier": "=", "measurement": 15000}
{"compound": "O=C(O)C1c2[nH]c3ccccc3c2CCN1S(=O)(=O)c1ccc(Oc2ccc(Cl)cc2)cc1 (racemic)", "property": "IC50", "censoring.qualifier": "=", "measurement": 800}
{"compound": "O=C(NO)C1c2[nH]c3ccccc3c2CCN1S(=O)(=O)c1ccc(Oc2ccc(F)cc2)cc1 (racemic)", "property": "IC50", "censoring.qualifier": "<", "measurement": 0.5}
{"compound": "O=C(O)C1c2[nH]c3ccccc3c2CCN1S(=O)(=O)c1ccc(Oc2ccc(F)cc2)cc1 (racemic)", "property": "IC50", "censoring.qualifier": ">", "measurement": 50000}
{"compound": "COc1ccc(Oc2ccc(S(=O)(=O)N3CCc4c([nH]c5ccccc45)C3C(=O)NO)cc2)cc1 (racemic)", "property": "IC50", "censoring.qualifier": "<", "measurement": 0.5}

----------
Measured IC50 on MMP12 (Homo sapiens, UniProt P39900) follows.
Sequence (P39900 106-263 limits assumed, species assumed): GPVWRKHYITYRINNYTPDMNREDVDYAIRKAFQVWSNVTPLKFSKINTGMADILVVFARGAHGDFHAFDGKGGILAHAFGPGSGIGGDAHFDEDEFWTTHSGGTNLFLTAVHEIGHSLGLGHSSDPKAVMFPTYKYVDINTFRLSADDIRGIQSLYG

{"compound": "O=C(NO)C1c2[nH]c3ccccc3c2CCN1S(=O)(=O)c1ccc(-c2ccccc2)cc1 (racemic)", "IC50": "4 nM"}
{"compound": "CC1(C)SCCN(S(=O)(=O)c2ccc(Oc3ccncc3)cc2)[C@H]1C(=O)NO [prinomastat, reference compound]", "IC50": "< 0.5 nM"}
{"compound": "CCCCOc1ccc(S(=O)(=O)N2CCc3c([nH]c4ccccc34)C2C(=O)O)cc1 (racemic)", "IC50": "4500 nM"}
{"compound": "CCCCOc1ccc(S(=O)(=O)N2CCc3c([nH]c4ccccc34)C2C(=O)NO)cc1 (racemic)", "IC50": "< 0.5 nM"}

----------
pIC50: −log10 of the molar value.
MMP3 (Homo sapiens, UniProt P08254) pIC50 data
Sequence (P08254 100-272 limits assumed, species assumed): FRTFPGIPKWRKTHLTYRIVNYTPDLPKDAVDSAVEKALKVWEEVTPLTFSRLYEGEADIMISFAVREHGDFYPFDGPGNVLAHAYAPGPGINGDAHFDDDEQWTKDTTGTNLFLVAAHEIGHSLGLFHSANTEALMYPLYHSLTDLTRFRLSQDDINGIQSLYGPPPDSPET
property: pIC50

{"compound": "O=C(NO)C1c2[nH]c3ccccc3c2CCN1S(=O)(=O)c1ccc(Oc2ccc(F)cc2)cc1 (racemic) [Compound 14]", "system.tested": "MMP3 (Homo sapiens, UniProt P08254)", "censoring.qualifier": "=", "measurement": 6.22}
{"compound": "O=C(O)C1c2[nH]c3ccccc3c2CCN1S(=O)(=O)c1ccc(-c2ccccc2)cc1 (racemic) [Compound 3]", "system.tested": "MMP3 (Homo sapiens, UniProt P08254)", "censoring.qualifier": "=", "measurement": 4.96}
{"compound": "O=C(O)C1c2[nH]c3ccccc3c2CCN1S(=O)(=O)c1ccc(Oc2ccc(F)cc2)cc1 (racemic) [Compound 9]", "system.tested": "MMP3 (Homo sapiens, UniProt P08254)", "censoring.qualifier": "<", "measurement": 4.30}
{"compound": "O=C(O)C1c2[nH]c3ccccc3c2CCN1S(=O)(=O)c1ccc(Oc2ccc(Cl)cc2)cc1 (racemic) [Compound 8]", "system.tested": "MMP3 (Homo sapiens, UniProt P08254)", "censoring.qualifier": "<", "measurement": 4.30}
{"compound": "CCCCOc1ccc(S(=O)(=O)N2CCc3c([nH]c4ccccc34)C2C(=O)NO)cc1 (racemic) [Compound 10]", "system.tested": "MMP3 (Homo sapiens, UniProt P08254)", "censoring.qualifier": "=", "measurement": 5.40}

----------
Biological target: MMP1 (Homo sapiens)
Sequence (P03956 98-276 limits assumed): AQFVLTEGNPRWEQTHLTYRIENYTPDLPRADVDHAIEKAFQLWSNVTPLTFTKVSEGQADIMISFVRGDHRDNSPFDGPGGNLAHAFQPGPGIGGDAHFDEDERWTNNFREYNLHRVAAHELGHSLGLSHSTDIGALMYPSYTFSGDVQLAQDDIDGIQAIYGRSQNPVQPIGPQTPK
pIC50: −log10 of the molar value.
The compounds listed here are annotated with their pIC50.

{"compound": "O=C(NO)C1c2[nH]c3ccccc3c2CCN1S(=O)(=O)c1ccc(Oc2ccc(Cl)cc2)cc1 (racemic)", "pIC50": "< 4.30"}
{"compound": "CCCCOc1ccc(S(=O)(=O)N2CCc3c([nH]c4ccccc34)C2C(=O)NO)cc1 (racemic)", "pIC50": 4.70}
{"compound": "COc1ccc(Oc2ccc(S(=O)(=O)N3CCc4c([nH]c5ccccc45)C3C(=O)O)cc2)cc1 (racemic)", "pIC50": "< 4.30"}
{"compound": "CCCCOc1ccc(S(=O)(=O)N2CCc3c([nH]c4ccccc34)C2C(=O)O)cc1 (racemic)", "pIC50": "< 4.30"}

----------
Biological target: MMP2 (Homo sapiens, UniProt P08253)
Sequence (P08253 110-660): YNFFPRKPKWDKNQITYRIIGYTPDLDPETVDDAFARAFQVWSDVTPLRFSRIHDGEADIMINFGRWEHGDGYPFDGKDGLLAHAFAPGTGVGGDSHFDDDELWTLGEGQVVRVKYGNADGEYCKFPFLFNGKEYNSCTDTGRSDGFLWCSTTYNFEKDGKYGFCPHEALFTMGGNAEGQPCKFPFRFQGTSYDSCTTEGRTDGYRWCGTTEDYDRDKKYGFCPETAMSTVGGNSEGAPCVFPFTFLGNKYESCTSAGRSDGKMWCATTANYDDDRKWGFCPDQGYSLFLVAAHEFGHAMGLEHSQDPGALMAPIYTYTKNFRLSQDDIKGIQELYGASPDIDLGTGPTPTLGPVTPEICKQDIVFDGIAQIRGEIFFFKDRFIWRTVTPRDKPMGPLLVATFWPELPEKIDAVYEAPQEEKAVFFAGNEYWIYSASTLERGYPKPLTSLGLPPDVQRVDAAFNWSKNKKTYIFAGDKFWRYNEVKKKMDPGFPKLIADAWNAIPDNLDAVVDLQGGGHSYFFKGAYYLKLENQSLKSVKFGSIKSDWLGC
pIC50: −log10 of the molar value.

{"compound": "COc1ccc(Oc2ccc(S(=O)(=O)N3CCc4c([nH]c5ccccc45)C3C(=O)NO)cc2)cc1 (racemic)", "censoring.qualifier": ">", "pIC50": 9.52}
{"compound": "CC(C)(C)c1ccc(S(=O)(=O)N2CCc3c([nH]c4ccccc34)C2C(=O)O)cc1 (racemic)", "censoring.qualifier": "<", "pIC50": 3.90}
{"compound": "O=C(NO)C1c2[nH]c3ccccc3c2CCN1S(=O)(=O)c1ccc(-c2ccccc2)cc1 (racemic)", "censoring.qualifier": "=", "pIC50": 7.85}
{"compound": "COc1ccc(Oc2ccc(S(=O)(=O)N3CCc4c([nH]c5ccccc45)C3C(=O)O)cc2)cc1 (racemic)", "censoring.qualifier": "=", "pIC50": 6.22}
{"compound": "CCCCOc1ccc(S(=O)(=O)N2CCc3c([nH]c4ccccc34)C2C(=O)O)cc1 (racemic)", "censoring.qualifier": "=", "pIC50": 6.17}
{"compound": "Cc1ccc(S(=O)(=O)N2CCc3c([nH]c4ccccc34)C2C(=O)O)cc1 (racemic)", "censoring.qualifier": "=", "pIC50": 4.82}
{"compound": "O=C(O)C1c2[nH]c3ccccc3c2CCN1S(=O)(=O)c1ccc2ccccc2c1 (racemic)", "censoring.qualifier": "=", "pIC50": 5.60}

----------
Biological target: UniProtKB P22894
Sequence (P22894 100-262 limits assumed, species assumed): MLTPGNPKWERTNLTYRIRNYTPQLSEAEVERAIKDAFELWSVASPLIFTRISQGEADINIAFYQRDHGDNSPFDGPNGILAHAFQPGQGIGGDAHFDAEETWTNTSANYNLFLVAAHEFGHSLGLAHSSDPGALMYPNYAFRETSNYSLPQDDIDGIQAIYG
property: IC50 (nM)

{"compound": "O=C(NO)C1c2[nH]c3ccccc3c2CCN1S(=O)(=O)c1ccc(-c2ccccc2)cc1 (racemic)", "censoring.qualifier": "=", "measurement": 4.7}
{"compound": "COc1ccc2[nH]c3c(c2c1)CCNC3C(=O)O (stereo not drawn) [reference compound]", "censoring.qualifier": "=", "measurement": 200}
{"compound": "O=C(O)C1c2[nH]c3ccccc3c2CCN1S(=O)(=O)c1ccc(-c2ccccc2)cc1 (racemic)", "censoring.qualifier": "=", "measurement": 3000}
{"compound": "CCCCOc1ccc(S(=O)(=O)N2CCc3c([nH]c4ccccc34)C2C(=O)O)cc1 (racemic)", "censoring.qualifier": "=", "measurement": 30000}
{"compound": "COc1ccc(Oc2ccc(S(=O)(=O)N3CCc4c([nH]c5ccccc45)C3C(=O)NO)cc2)cc1 (racemic)", "censoring.qualifier": "<", "measurement": 0.5}
{"compound": "CC1(C)SCCN(S(=O)(=O)c2ccc(Oc3ccncc3)cc2)[C@H]1C(=O)NO [prinomastat, reference compound]", "censoring.qualifier": "<", "measurement": 0.5}
